- subject_of_test: Estrogen receptor (Homo sapiens) (UniProt P03372)
- Sequence (P03372 whole entry, looked up): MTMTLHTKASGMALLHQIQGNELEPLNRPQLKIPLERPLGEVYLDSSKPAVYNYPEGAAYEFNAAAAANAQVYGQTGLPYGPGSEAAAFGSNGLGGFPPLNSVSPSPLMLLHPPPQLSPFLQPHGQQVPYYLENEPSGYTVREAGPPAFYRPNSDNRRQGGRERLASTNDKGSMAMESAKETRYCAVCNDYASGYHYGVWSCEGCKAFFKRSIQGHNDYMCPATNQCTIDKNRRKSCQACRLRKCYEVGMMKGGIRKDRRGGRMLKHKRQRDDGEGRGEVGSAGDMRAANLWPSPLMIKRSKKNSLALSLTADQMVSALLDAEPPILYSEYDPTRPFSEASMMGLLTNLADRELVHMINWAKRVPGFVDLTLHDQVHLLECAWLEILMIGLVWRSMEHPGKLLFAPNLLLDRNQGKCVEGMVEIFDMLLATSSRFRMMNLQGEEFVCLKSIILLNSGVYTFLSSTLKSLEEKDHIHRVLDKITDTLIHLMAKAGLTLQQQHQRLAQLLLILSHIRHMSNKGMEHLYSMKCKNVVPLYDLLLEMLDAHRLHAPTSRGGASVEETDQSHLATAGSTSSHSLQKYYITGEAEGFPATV
- assay_details: qHTS assay for small molecule agonists of estrogen receptor alpha signaling (AID 588514); also: nearly all actives have a fitted effect of over 70% in size
- measurement_parameters: ER-alpha-UAS-bla HEK293, beta-lactamase ratio, 18 h; series mostly up to 76.8 µM
Results filed as inconclusive are left out. Activity calls are given as the source filed them. Calls follow the shape of the full dose curve.
Classes to choose from: YES = active, NO = inactive

Worked set:
- molecule: "N#CN=C1SCCN1Cc1ccc(Cl)nc1"
  class_assignment: "NO"
- molecule: "CSc1nc(NC(C)C)nc(NC(C)C)n1"
  class_assignment: "NO"
- molecule: "O=Nc1ccc(Nc2ccccc2)cc1"
  class_assignment: "YES"
- molecule: "Cc1c(COC(=O)C2C(/C=C(\\Cl)C(F)(F)F)C2(C)C)cccc1-c1ccccc1 (stereo not given)"
  class_assignment: "NO"
- molecule: "COc1cc(OC)nc(NC(=O)NS(=O)(=O)c2ncccc2OCC(F)(F)F)n1"
  class_assignment: "NO"
- molecule: "CC(C)C1(C)N=C(c2ncccc2C(=O)O)NC1=O (stereo not given)"
  class_assignment: "NO"
- molecule: "CC1(C)[C@H](C=C(Cl)Cl)[C@H]1C(=O)O[C@H](C#N)c1ccc(F)c(Oc2ccccc2)c1"
  class_assignment: "NO"
- molecule: "CCCCC(CC)C(=O)Cl (stereo not given)"
  class_assignment: "NO"

Incoming: Entry CCOP(=S)(OCC)Oc1ncn(-c2ccccc2)n1 : call = ?
Outgoing: NO

Incoming: Entry Cn1cc(-c2ccccc2)c(=O)c(-c2cccc(C(F)(F)F)c2)c1 : call = ?
Outgoing: NO

Incoming: Entry CNP(=O)(OC)Oc1ccc(C(C)(C)C)cc1Cl (stereo not given) : call = ?
Outgoing: NO

Incoming: Entry OC(c1ccc(Cl)cc1)(c1ccc(Cl)cc1)C(Cl)(Cl)Cl : call = ?
Outgoing: NO

Incoming: Entry COc1cc(OC)nc(NC(=O)NS(=O)(=O)c2ncccc2C(F)(F)F)n1 : call = ?
Outgoing: NO

Incoming: Entry Clc1ccc(-c2cc(Cl)c(Cl)cc2Cl)cc1Cl : call = ?
Outgoing: NO

Incoming: Entry O=C(Nc1ccccc1)Nc1ccnc(Cl)c1 : call = ?
Outgoing: NO

Incoming: Entry CCOP(N)(=O)Oc1ccc(SC)c(C)c1 (stereo not given) : call = ?
Outgoing: NO

Incoming: Entry C=CC1(C)OC(=O)N(c2cc(Cl)cc(Cl)c2)C1=O (stereo not given) : call = ?
Outgoing: NO
